Assign pEC50 to each entry below.
# tested target: human GLP-1R (Homo sapiens)
# Sequence (P43220 24-463): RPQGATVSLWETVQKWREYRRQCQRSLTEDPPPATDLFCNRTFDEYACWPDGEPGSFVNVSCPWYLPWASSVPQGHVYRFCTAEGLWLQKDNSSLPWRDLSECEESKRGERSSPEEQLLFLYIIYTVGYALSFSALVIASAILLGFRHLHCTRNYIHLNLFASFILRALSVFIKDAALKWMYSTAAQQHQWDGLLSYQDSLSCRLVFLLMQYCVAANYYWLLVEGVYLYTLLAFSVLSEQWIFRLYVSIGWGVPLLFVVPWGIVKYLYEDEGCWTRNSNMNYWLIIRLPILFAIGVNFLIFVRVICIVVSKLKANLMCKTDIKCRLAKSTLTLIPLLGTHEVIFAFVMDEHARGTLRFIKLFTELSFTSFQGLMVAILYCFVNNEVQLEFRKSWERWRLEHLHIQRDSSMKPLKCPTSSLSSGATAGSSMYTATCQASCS
# protocol summary: GLP-1R Cell Assay 1: cAMP Hunter CHO-K1 GLP1R Gs cell line, HitHunter cAMP assay
# Format: cell-based
# study conditions: Table 2; cAMP Hunter CHO-K1 GLP1R Gs cells; percent activity normalized to Exendin-4
Answers are plain numbers, as −log10 of the molar value.

compound | tested target | pEC50
O=C(O)c1ccc2nc(CN3CC[C@]4(c5cccc(OCc6nc7ccccc7s6)n5)C[C@@H]4C3)n(C[C@@H]3CCO3)c2c1 (single isomer, unassigned) [Compound 104-P2] | human GLP-1R (Homo sapiens) | 8.09
O=C(O)c1ccc2nc(CN3CCN(c4cccc(OCc5nc6c(s5)CCCC6)n4)CC3)n(C[C@@H]3CCO3)c2c1 | human GLP-1R (Homo sapiens) | 8.77

Here is another compound to look at.
Data request: Give the measured pEC50 of N#Cc1ccc(COc2cccc(N3CCC(Cc4nc5ccc(C(=O)O)cc5n4C[C@@H]4CCO4)CC3)n2)c(F)c1 .
Data returned: 9.51
